Entries and their AC50 values follow.
ASSAY SUMMARY: blockade of melanocortin 4 receptor signaling – cell-based, plate reader, cherry pick, counter-screen for LGR2 antagonist project, dose response (AID 743444);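 note: transfected HEK 293 cells stimulated with alpha-MSH peptide; potency of inhibitors of the alpha-MSH evoked signal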
Assay type: functional
The source made the active and inactive calls.

Worked cases, AC50 given:
O=C(CN1CCOc2ccccc21)NCc1ccc(F)cc1
29.2 µM (active)
Cn1nnnc1Sc1ncnc2scc(-c3ccc([N+](=O)[O-])cc3)c12
5.32 µM (active)
COc1ccc(-c2[nH]ncc2-c2ccc3c(c2)OCCO3)c(O)c1
0.723 µM (active)

# next compound below
Any idea what AC50 was measured for `COc1ccc(-n2ncc3c(N4CCC(C)CC4)ncnc32)cc1` ? 19.3 µM (active)

====

TARGET UNDER TEST: Calpain-2 catalytic subunit (Sus scrofa)
Sequence (P43367 whole entry): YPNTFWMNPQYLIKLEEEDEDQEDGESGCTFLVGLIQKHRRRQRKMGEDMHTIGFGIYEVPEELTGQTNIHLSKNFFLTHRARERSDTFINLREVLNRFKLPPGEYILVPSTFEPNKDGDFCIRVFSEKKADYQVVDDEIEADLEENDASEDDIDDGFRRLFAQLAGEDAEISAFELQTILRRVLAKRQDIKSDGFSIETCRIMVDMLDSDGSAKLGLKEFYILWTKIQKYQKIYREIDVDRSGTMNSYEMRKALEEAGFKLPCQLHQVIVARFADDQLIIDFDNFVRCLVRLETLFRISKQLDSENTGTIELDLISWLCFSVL
ASSAY SUMMARY: m-calpain protease blockers, concentration series – biochemical, fluorogenic peptide substrate, dose response (AID 1420)
Type: functional
Activity calls are given as the source filed them.
Entries and their IC50 values follow.

Cc1ccc(C(=O)O)cc1N1C(=O)c2cccc3cc(Br)cc(c23)C1=O
7.36 µM (not active)
COc1ccc2cc(C(=O)N3CCCCCC3)sc(=O)c2c1OC
11.1 µM (active)
CC(C)c1onc(C(=O)Nc2cccc(Cl)c2)c1[N+](=O)[O-]
2.32 µM (not active)

Any idea what IC50 was measured for `Cn1c(N)c(C(=O)COC(=O)CCC2CCCC2)c(=O)n(C)c1=O` ? 15.5 µM (not active)

Any idea what IC50 was measured for `COc1cccc(C(=O)N2c3ccccc3Sc3ccccc32)c1` ? 6.88 µM (not active)

Any idea what IC50 was measured for CCC(C(=O)OCC(=O)Nc1ccc(SC(F)F)cc1)c1ccccc1 (stereo not drawn) ? 7.17 µM (not active)

Any idea what IC50 was measured for `O=c1c2c(-c3ccccc3)csc2ncn1/N=C/c1ccc(O)c([N+](=O)[O-])c1` ? 9.57 µM (not active)

Any idea what IC50 was measured for `CCC(CC)NC(=O)COC(=O)c1ccc(OCC(=O)Nc2ccccc2OC)c(OC)c1` ? 18.5 µM (not active)

====

Reported AC50 for target or system Cytochrome P450 3A4 (Homo sapiens), by entry.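 Note: CYP3A4 tested as one member of a cytochrome P450 panel screen.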

Worked cases, AC50 given:
CC(=O)c1cccc(NC(=O)CCC2CCCC2)c1
28.2 µM (inconclusive)
Cc1ccc2c(c1)N(CCC(=O)NCCN1CCOCC1)C(=O)CO2
25.1 µM (inconclusive)
O=c1[nH]c2ccccc2/c(=N\S(=O)(=O)c2ccc(Cl)cc2)n1-c1ccccc1
2.82 µM (inconclusive)
Oc1ccc(Br)cc1CNn1cnnc1
35.5 µM (inconclusive)
CC(=O)N1CCC2(CCCN(C(c3ccccc3)c3ccccc3)C2)CC1
12.6 µM (inconclusive)

// map `O=C(Nc1ccc2c(c1)nc1n2CCN(C2CCCCC2)C1)NC1CCCCC1` to recorded AC50 (system: Cytochrome P450 3A4 (Homo sapiens)) 15.8 µM (inconclusive)

// map `O=C(c1cnn(-c2ccccc2)c1)c1ccc2ccccc2c1O` to recorded AC50 (system: Cytochrome P450 3A4 (Homo sapiens)) 17.8 µM (inconclusive)

// map CCC(c1nnnn1CCOC)N1CCN(C(=O)c2ccco2)CC1 (stereo unspecified) to recorded AC50 (system: Cytochrome P450 3A4 (Homo sapiens)) 28.2 µM (inconclusive)

// map `CCC(Nc1cc(OC)ccc1OC)=C1C(=O)NC(=O)NC1=O` to recorded AC50 (system: Cytochrome P450 3A4 (Homo sapiens)) 39.8 µM (inconclusive)

// map `CC(C)(C)c1ccc(-c2nnc(SCC(=O)c3ccc4c(c3)OCCO4)o2)cc1` to recorded AC50 (system: Cytochrome P450 3A4 (Homo sapiens)) 39.8 µM (inconclusive)

// map `CC(C)CC(=O)N1CCC(O)(CS(=O)(=O)Cc2ccc(Cl)cc2)CC1` to recorded AC50 (system: Cytochrome P450 3A4 (Homo sapiens)) 8.91 µM (inconclusive)

// map `CN(C)c1ncc2ncc(=O)n(Cc3cccs3)c2n1` to recorded AC50 (system: Cytochrome P450 3A4 (Homo sapiens)) 15.8 µM (inconclusive)

// map O=C1NC(=O)N(CCNc2ncc(C(F)(F)F)cc2Cl)C(=O)C1/C=N/OCc1c(F)cccc1Cl (stereo unspecified) to recorded AC50 (system: Cytochrome P450 3A4 (Homo sapiens)) 3.16 µM (inconclusive)

// map `O=c1[nH]c(=S)[nH]c(-c2ccccc2)c1Cc1c(O)ccc2ccccc12` to recorded AC50 (system: Cytochrome P450 3A4 (Homo sapiens)) 0.631 µM (inconclusive)

====

ASSAY SUMMARY: alpha-synuclein stem-loop luciferase translation blockers – H4 neuroglioma cells, luminescence, confirmation (AID 1988)
Format: functional, cell-based
Calls of active or inactive are those of the source.
METRIC NAME: EC50

NC1=C(Br)C(=O)c2ccccc2C1=O
> 120 µM (not active)
COc1cc(OC)c(NC2=CC(=O)C(=O)c3ccccc32)cc1Cl
0.197 µM (active)
Cc1nc(Nc2nc(O)c3c(n2)CCC3)nc2ccccc12
9.61 µM (active)
CC(C)OC(=O)/C(C#N)=C/c1cn(Cc2ccccc2)c2ccccc12
7.08 µM (active)

# next compound below
Any idea what EC50 was measured for `Cc1cc(C)c(S(=O)(=O)Nc2ccc3c4c(cccc24)CC3)c(C)c1` ? < 0.1 µM (active)

====

TARGET UNDER TEST: Short transient receptor potential channel 4 (Mus musculus, UniProt Q9QUQ5)
Sequence (Q9QUQ5 whole entry): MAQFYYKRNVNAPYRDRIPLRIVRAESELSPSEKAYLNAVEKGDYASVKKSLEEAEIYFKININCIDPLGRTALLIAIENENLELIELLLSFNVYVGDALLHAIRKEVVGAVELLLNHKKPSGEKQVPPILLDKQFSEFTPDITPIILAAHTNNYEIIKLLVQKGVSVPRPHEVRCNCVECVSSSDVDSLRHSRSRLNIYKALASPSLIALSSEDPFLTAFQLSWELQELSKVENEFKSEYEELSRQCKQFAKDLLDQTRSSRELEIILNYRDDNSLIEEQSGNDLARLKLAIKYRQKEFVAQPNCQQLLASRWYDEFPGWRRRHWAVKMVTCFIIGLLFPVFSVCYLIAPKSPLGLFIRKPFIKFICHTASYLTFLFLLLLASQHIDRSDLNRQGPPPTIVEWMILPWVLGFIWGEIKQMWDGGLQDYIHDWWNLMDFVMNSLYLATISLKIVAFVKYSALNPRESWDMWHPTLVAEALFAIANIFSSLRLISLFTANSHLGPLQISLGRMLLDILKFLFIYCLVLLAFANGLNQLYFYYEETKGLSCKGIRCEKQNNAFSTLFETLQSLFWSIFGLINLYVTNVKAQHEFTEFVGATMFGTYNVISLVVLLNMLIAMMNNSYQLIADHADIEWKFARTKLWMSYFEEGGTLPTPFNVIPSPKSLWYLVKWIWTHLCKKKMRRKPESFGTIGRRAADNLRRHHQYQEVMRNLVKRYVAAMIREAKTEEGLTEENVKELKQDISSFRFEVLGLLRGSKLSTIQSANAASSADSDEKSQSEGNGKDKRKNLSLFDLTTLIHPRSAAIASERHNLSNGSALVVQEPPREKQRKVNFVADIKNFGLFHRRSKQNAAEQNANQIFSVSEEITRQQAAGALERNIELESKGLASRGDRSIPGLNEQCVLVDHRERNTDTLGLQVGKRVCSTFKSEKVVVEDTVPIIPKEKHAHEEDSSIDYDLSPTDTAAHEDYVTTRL
ASSAY SUMMARY: block of DAMGO-driven TRPC4 calcium entry – cell-based, HEK293 TRPC4/mu-opioid, Fluo-4 calcium, dose response (AID 434942);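 note: potency of inhibitors blocking the TRPC4 calcium response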
Assay type: functional
Activity calls are given as the source filed them.
Entries and their EC50 values follow.

Worked cases, EC50 given:
CN(CC1CCCN(CCc2cccc(C(F)(F)F)c2)C1)C(=O)c1cc2ccccc2o1 (configuration not stated)
668 nM (active)
O=C(CSc1nnc(-c2ccc(Cl)cc2Cl)n1C1CCCCC1)N1CCCC1
2370 nM (active)
O=C(CSc1nnc(-c2ccc(Cl)cc2Cl)n1C1CCCCC1)NC1CCS(=O)(=O)C1 (configuration not stated)
1680 nM (active)

Any idea what EC50 was measured for Fc1ccccc1COc1ccc(Br)cc1CNCC1CCCO1 (configuration not stated) ? 944 nM (active)

Any idea what EC50 was measured for `COc1ccccc1N1CCN(CCCNC(=O)Nc2ccccc2)CC1` ? 1880 nM (active)

Any idea what EC50 was measured for C=CCN1CCN(C(c2cccc(OC)c2OC)c2nnnn2CCC(C)C)CC1 (configuration not stated) ? 1680 nM (active)

Any idea what EC50 was measured for CCC(O)(c1ccc(OC)cc1)C(CN1CCOCC1)c1ccccc1 (configuration not stated) ? 5960 nM (active)

====

TARGET UNDER TEST: Aminopeptidase N (Plasmodium falciparum FcB1/Columbia)
Sequence (O96935 whole entry): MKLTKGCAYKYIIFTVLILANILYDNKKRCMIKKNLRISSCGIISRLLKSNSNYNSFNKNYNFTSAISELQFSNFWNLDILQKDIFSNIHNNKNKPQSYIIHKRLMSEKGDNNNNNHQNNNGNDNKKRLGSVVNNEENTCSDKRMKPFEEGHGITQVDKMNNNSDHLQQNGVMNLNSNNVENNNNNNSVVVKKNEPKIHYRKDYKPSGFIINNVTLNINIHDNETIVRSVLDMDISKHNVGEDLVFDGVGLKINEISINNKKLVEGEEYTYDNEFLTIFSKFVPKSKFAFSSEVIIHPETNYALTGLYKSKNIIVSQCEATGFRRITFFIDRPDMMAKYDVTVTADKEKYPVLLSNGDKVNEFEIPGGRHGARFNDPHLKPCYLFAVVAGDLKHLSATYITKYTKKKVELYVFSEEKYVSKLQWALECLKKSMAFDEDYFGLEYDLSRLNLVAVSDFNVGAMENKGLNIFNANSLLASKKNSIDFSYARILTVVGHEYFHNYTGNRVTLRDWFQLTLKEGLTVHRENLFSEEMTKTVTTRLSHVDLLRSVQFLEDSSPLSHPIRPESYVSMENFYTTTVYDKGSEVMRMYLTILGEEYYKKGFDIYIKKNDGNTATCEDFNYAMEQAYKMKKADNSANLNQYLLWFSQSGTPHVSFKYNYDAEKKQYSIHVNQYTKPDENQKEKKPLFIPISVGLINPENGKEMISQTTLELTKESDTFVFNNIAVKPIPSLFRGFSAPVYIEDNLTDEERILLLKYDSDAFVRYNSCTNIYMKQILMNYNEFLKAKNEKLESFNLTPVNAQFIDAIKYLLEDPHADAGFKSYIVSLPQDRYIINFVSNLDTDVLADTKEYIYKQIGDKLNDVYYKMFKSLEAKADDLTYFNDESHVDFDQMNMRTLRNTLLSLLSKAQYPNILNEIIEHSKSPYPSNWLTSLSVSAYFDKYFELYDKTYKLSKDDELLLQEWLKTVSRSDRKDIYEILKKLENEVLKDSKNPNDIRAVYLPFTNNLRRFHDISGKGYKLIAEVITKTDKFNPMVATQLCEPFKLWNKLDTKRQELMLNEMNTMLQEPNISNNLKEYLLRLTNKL
ASSAY SUMMARY: malaria alanyl aminopeptidase activity blockers – biochemical, fluorogenic H-Leu-NHMec substrate, 1536-well (AID 1445)
Design: species or system Plasmodium falciparum 3D7, 3D7
Active and inactive are the calls of the source.
Entries and their IC50 values follow.

Worked cases, IC50 given:
O=C(O)/C(=C\c1ccc(-c2ccc(F)cc2)o1)c1ccccc1
51.4 µM (active)
Cc1n[nH]c(S/C(=C\c2ccc(-c3ccc(C(=O)O)c(Cl)c3)o2)C(=O)O)n1
11.3 µM (active)
O=C(NCc1ccc2c(c1)OCO2)C1CCCN(S(=O)(=O)c2cccnc2)C1 (stereo not given)
70.7 µM (active)
CCOC(=O)N1CCN(C(=O)C(=O)NNC(=O)COc2ccc(Cl)cc2)CC1
106 µM (active)

# next compound below
Any idea what IC50 was measured for `O=C1NC(=S)S/C1=C\c1coc2ccc(O)cc2c1=O` ? 38.8 µM (active)

Recorded values, source ChEMBL document CHEMBL1201862.
